Give measured TGI for each item. Keep answers brief.
system: U251 CNS; assay: NCI tumour cell line growth inhibition, 48 h
Give bare numbers, in µM.

[
  {
    "COMPOUND": "O=S(=O)(NCCCNc1cc(-c2cn(-c3ccccc3)nc2-c2cccc(O)c2)ccn1)c1ccc(C(F)(F)F)cc1",
    "TARGET_UNDER_TEST": "U251 CNS",
    "TGI (µM)": 3.26
  },
  {
    "COMPOUND": "CC(=O)c1ccc(Br)cc1NC1=CC(=O)c2ncccc2C1=O",
    "TARGET_UNDER_TEST": "U251 CNS",
    "TGI (µM)": 19.7
  },
  {
    "COMPOUND": "Cc1c2cnccc2c(C)c2c1c1ccccc1n2CCOC(=O)c1ccccc1",
    "TARGET_UNDER_TEST": "U251 CNS",
    "TGI (µM)": 44.1
  },
  {
    "COMPOUND": "COc1ccc(-c2nc3sc(-c4cc(OC)c(OC)c(OC)c4)nn3c2/C=C2/C(=O)Nc3ccc(F)cc32)cc1",
    "TARGET_UNDER_TEST": "U251 CNS",
    "TGI (µM)": 3.39
  }
]

Please turn your attention to the following entry.
// sample N#CC1=C(N)Oc2c(sc3c(Br)cccc23)C1c1ccc([N+](=O)[O-])cc1 (stereo unspecified) , its TGI was 11.8
